# Tested on: UISO
# experiment: qHTS assay to identify novel small-molecules to repurpose for Merkel cell carcinoma treatment (AID 1296009); further: nearly all actives have a fitted effect of over 60% in size
# run-parameters: MCC and control cell lines, CellTiter-Glo viability, 72 h; series mostly up to 46 µM
Inconclusive results are not listed. The source made the active and inactive calls. The call rests on the fitted dose curve; in most records, active means well fitted inhibition curve with a large enough effect; inconclusive means small, poorly fitted or top-dose-only effect; inactive means flat fitted curve, though single readings scatter.
Valid outcomes are listed here; reply with one: 1 (active), 0 (inactive)

| molecule | cat |
| --- | --- |
| CN(C)CC/C=C1\c2ccccc2COc2ccccc21 | 0 |
| CC(C)[N+](C)(CCOC(=O)C1c2ccccc2Oc2ccccc21)C(C)C | 0 |
| CCN(CC)CCCN(c1ccccc1)C1Cc2ccccc2C1 | 0 |

Per the assay record, what outcome was assigned to `CSc1ccc(C(=O)c2[nH]c(=O)[nH]c2C)cc1` ? 0

Per the assay record, what outcome was assigned to `NC(=O)c1ncn([C@@H]2O[C@H](CO)[C@@H](O)[C@H]2O)c1O` ? 0

Per the assay record, what outcome was assigned to `NC(=O)N1c2ccccc2C=Cc2ccccc21` ? 0

Per the assay record, what outcome was assigned to `FC(F)(F)c1ccccc1-n1ccnc1` ? 0

Per the assay record, what outcome was assigned to `NC(=O)c1cn(Cc2c(F)cccc2F)nn1` ? 0

The measurements presented in this section are drawn from PubChem BioAssay (NCATS).
